Documented growth inhibition across a set of compounds
# test.description: NCI Yeast Anticancer Drug Screen. Data for the cln2 rad14 strain (AID 165);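 note: 0% = growth equal to vehicle treated cultures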
# study.conditions: S. cerevisiae cln2 rad14 strain, at 5.0 µM (retest, dose inferred, filed as 0.5), active compounds read high
The panel holds about 79,000 compounds, 15% with a hit somewhere; the sample as a whole holds those more often. Activity calls are given as the source filed them. Cut-off read from the data, not from the text of the source: active = growth inhibition above about 70%; inactive = the rest.

- compound: "CSc1ncc(COP(=S)(OCc2cnc(SC)nc2N)OCc2cnc(SC)nc2N)c(N)n1"
  growth inhibition: "8% (inactive)"
- compound: "O=C1C=C(CN(CCCl)CCCl)C(=O)C=C1CN(CCCl)CCCl"
  growth inhibition: "-3% (inactive)"
- compound: "COC(=O)C1=C(C(=O)OC)[C]([Hg][CH3])(C(C)=O)N=N1 (stereo not given)"
  growth inhibition: "99% (active)"
- compound: "CCCCCNC(=O)c1c(O)[nH]c(=S)[nH]c1=O"
  growth inhibition: "6% (inactive)"
- compound: "CC(=O)OCC12CCC(C)=CC1OC1C3(O)N=C(C)OC3C2(C)C12CO2 (stereo not given)"
  growth inhibition: "38% (inactive)"
- compound: "O=C(O)C1C2c3ccccc3C(c3ccccc32)C1Br (stereo not given)"
  growth inhibition: "3% (inactive)"
- compound: "ClCCN(CCCl)B(N(CCCl)CCCl)N(CCCl)CCCl"
  growth inhibition: "0% (inactive)"
- compound: "CC(C)(C)C[CH2][Hg][Cl]"
  growth inhibition: "99% (active)"
- compound: "COc1ccc(-c2c(C)c(C(=O)O)nc(-c3ccc4c(O)c(OC)c5c(c4n3)=NC(C)(C)N=5)c2N)c(O)c1OC"
  growth inhibition: "16% (inactive)"
- compound: "CC(=O)O[C@H]1CC[C@H]2[C@@H]3CC[C@H]4CC(=O)CC[C@@H]4[C@H]3CC[C@]12C"
  growth inhibition: "-14% (inactive)"

----------
# test.description: NCI Yeast Anticancer Drug Screen. Data for the mec2-1 strain (AID 157)
# study.conditions: S. cerevisiae mec2-1 strain, at 50.0 µM (retest, dose inferred, filed as 5.0), active compounds read high
This is part of a sample that, as a whole, favours compounds with a hit. Of some 79,000 tested, about 15% had one in any assay. Active and inactive are the calls of the source. No stated cut-off is given here; in the data, active means growth inhibition above about 70%; inactive means the rest.
measured.endpoint: growth inhibition

- compound: "CC(=O)C1C2c3ccccc3C(c3ccccc32)C1C (stereo not given)"
  assay.value: "52% (inactive)"
- compound: "N=P(c1ccccc1)(c1ccccc1)c1ccccc1.[O]=[Cr](=[O])([OH])[O][Cr](=[O])(=[O])[OH]"
  assay.value: "76% (active)"
- compound: "c1cc2c(cc1NC1=NCCO1)CCCC2"
  assay.value: "4% (inactive)"
- compound: "O=C(O)C(O)(c1ccccc1)C1(O)CCCCC1 (stereo not given)"
  assay.value: "-54% (inactive)"
- compound: "ClC1=C(Cl)C(Cl)(Cl)SS1"
  assay.value: "99% (active)"
- compound: "C[Si]1(C)CCCCC2(C1)C(=O)NC(=O)NC2=O"
  assay.value: "20% (inactive)"
- compound: "C[C@@H]1CCC2[C@@H](C)[C@H](O[C@H]3O[C@@H]4O[C@@]5(C)CCC6[C@H](C)CCC([C@H]3C)[C@]64OO5)O[C@@H]3O[C@@]4(C)CCC1[C@@]23OO4 (stereo not given in full)"
  assay.value: "94% (active)"
- compound: "Nc1ccc(Cl)cc1C(=O)c1ccccc1Cl"
  assay.value: "99% (active)"
- compound: "CCC[N+](CCC)(CCC)CCC.N#CN=C([SH2+])[SH2+].N#CN=C([SH2+])[SH2+].[Pt+2]"
  assay.value: "2% (inactive)"
- compound: "CC(C)=[CH][Sb]([Br])([CH]=C(C)C)([CH]=C(C)C)[CH]=C(C)C"
  assay.value: "17% (inactive)"

----------
# test.description: NCI Yeast Anticancer Drug Screen. Data for the mec2-1 strain (AID 157)
# study.conditions: S. cerevisiae mec2-1 strain, at 1.2 µM
This is part of a sample that, as a whole, favours compounds with a hit. Of some 79,000 tested, about 15% had one in any assay. Active and inactive are the calls of the source. Rule as the data show it: active = growth inhibition above about 70%; inactive = the rest.
Outcome codes: class 1 (active), class 0 (inactive)

- compound: "CN(C)CCSC1=Nc2ccc(Cl)cc2C(c2ccccc2Cl)=NC1"
  label.value: "class 0"
- compound: "COC(=O)C1=C(C(=O)OC)C2OC1c1cc3ccccc3cc12"
  label.value: "class 0"
- compound: "COC(=O)c1c(C)ccc2c(O)c3c(cc12)C(=O)c1c2c(cc(O)c1C3=O)C1(C)OC(C)(O2)C(O)C(N(C)C)C1O (configuration not stated)"
  label.value: "class 0"
- compound: "CCC1(O)C(=O)OCc2c1cc1n(c2=O)Cc2c-1nc1ccccc1c2OC (configuration not stated)"
  label.value: "class 0"
- compound: "c1ccc2cc3n[se]nc3cc2c1"
  label.value: "class 0"
- compound: "O=[N+]([O-])c1cc([As](Br)c2ccc(O)c([N+](=O)[O-])c2)ccc1O"
  label.value: "class 0"
- compound: "COC1C(O)C(C)OC(OC2C(Oc3cccc4c(O)c5c(=O)oc6ccc(C)c7c(=O)oc(c34)c5c67)OC(C)C(O)C2O)C1O (configuration not stated)"
  label.value: "class 0"
- compound: "O=[N+]([O-])c1oc2ccc3ccccc3c2c1CCO"
  label.value: "class 1"
- compound: "Cc1ccc2c(c1N)C(=O)c1ccccc1C2=O"
  label.value: "class 0"
- compound: "CCN(CCCl)CCCCNc1c2ccccc2nc2ccc(OC)cc12"
  label.value: "class 0"
- compound: "CS(=O)(=O)OCCN(CCOS(C)(=O)=O)c1ccc(C=O)cc1"
  label.value: "class 0"
- compound: "Cc1cccc(NC(=O)CBr)c1"
  label.value: "class 0"
- compound: "CC1=C(O)C(=O)C=C2C1=CC=C1[C@@]2(C)CCC2(C)[C@@H]3C[C@@H](C)C(=O)C[C@]3(C)CC[C@]12C (some centres not stated)"
  label.value: "class 0"
- compound: "O=c1oc2ccccc2c(O)c1C(c1ccc2c(c1)Cc1ccccc1-2)c1c(O)c2ccccc2oc1=O"
  label.value: "class 0"
- compound: "CC(=O)O/C(=C1\\C[C@H]2[C@@H]3CC=C4C[C@@H](OC(C)=O)CC[C@]4(C)[C@H]3CC[C@]2(C)C1=O)C(F)(F)F"
  label.value: "class 0"
- compound: "C=C[C@H]1CN2CC[C@H]1C[C@@H]2[C@@H](O)c1ccnc2ccccc12"
  label.value: "class 0"
- compound: "CCOP(=S)(S)OCC.[Pd]"
  label.value: "class 0"
- compound: "O=C1c2ccc3ccccc3c2CCC1N1CCCCC1 (configuration not stated)"
  label.value: "class 0"
- compound: "COc1cccc2c1C(=O)c1c(O)c3c(c(O)c1C2=O)C[C@@](O)(/C(C)=N\\O)C[C@@H]3OC1CC(N)C(O)C(C)O1 (some centres not stated)"
  label.value: "class 0"
- compound: "Br[Se]c1ccccn1"
  label.value: "class 0"
- compound: "C[N+](CCCl)(CCCl)Cc1cccc2cccc([N+](=O)[O-])c12"
  label.value: "class 0"
- compound: "C[CH2][Sn]1([CH2]C)[O]C2C(O)OC(CO)C(O)C2[O]1 (configuration not stated)"
  label.value: "class 0"

----------
# test.description: NCI Yeast Anticancer Drug Screen. Data for the cln2 rad14 strain (AID 165);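 note: 0% = growth equal to vehicle treated cultures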
# study.conditions: S. cerevisiae cln2 rad14 strain, at 50.0 µM
Compounds without any hit were thinned out: in the full panel of roughly 79,000, 15% have a hit. The source made the active and inactive calls. Cut-off read from the data, not from the text of the source: active = growth inhibition above about 70%; inactive = the rest.
Outcome codes: T = active, F = inactive

- compound: "O=C(CI)c1ccc[nH]1"
  label.value: "T"
- compound: "O=C1N[C@@H]2C(=C[C@H](O)[C@@H](O)[C@H]2O)c2cc3c(c(O)c21)OCO3"
  label.value: "F"
- compound: "O=[N+]([O-])C(Br)(Br)CCC(Br)(Br)[N+](=O)[O-]"
  label.value: "T"
- compound: "CCC1(O)C(=O)OCc2c1cc1n(c2=O)Cc2c-1nc1ccccc1c2OC (stereo not given)"
  label.value: "F"
- compound: "COC1CC(CC2CCC(C)C(C(C)C(=O)O)O2)OC2(OC(C)(C3CCC(C)(C4OC(C5OC(O)(CO)C(C)CC5C)CC4C)O3)CC2C)C1C (stereo not given)"
  label.value: "T"

----------
# test.description: NCI Yeast Anticancer Drug Screen. Data for the mec2-1 strain (AID 157)
# study.conditions: S. cerevisiae mec2-1 strain, at 50.0 µM
Compounds without any hit were thinned out: in the full panel of roughly 79,000, 15% have a hit. Active and inactive are the calls of the source. Rule as the data show it: active = growth inhibition above about 70%; inactive = the rest.
Outcome codes: 1 (active), -1 (inactive)

- compound: "CCCCCCCCC(=O)[O][Hg][c]1ccccc1"
  label.value: 1
- compound: "C1CC[CH]([Sn]([CH]2CCCCC2)[CH]2CCCCC2)CC1.C1CC[CH]([Sn]([CH]2CCCCC2)[CH]2CCCCC2)CC1"
  label.value: -1
- compound: "N.N.N.N.N.N#N.[Cl-].[Os+7]"
  label.value: -1
- compound: "N#Cc1ccc(N=Cc2c([O-])ccc3ccccc23)cc1.[C-]#[O+].[C-]#[O+].[Ir]"
  label.value: -1
- compound: "CCC1(O)C(=O)OCc2c1cc1n(c2=O)Cc2cc3ccccc3nc2-1 (configuration not stated)"
  label.value: 1
- compound: "CC1(C)CCC(C)(C)c2cc(Cl)c(O)cc21"
  label.value: 1
- compound: "COc1ccc2c(c1O)C13CCN(C)C(C2)C12C=CC(=O)C3c1c(O)ccc(O)c12 (configuration not stated)"
  label.value: -1
